Test: Size-exclusion FPLC retention of nitrophorins, mutants and ligand complexes
Assay type: physicochemical, Rhodnius prolixus
Details: pH 5.0
Reported Property: monomer or dimer on the size-exclusion column

// known answers, use as guide
K125E (protein) ACTKNAIAQTGFNKDKYFNGDVWYVTDYLDLEPDDVPKRYCAALAAGTASGKLKEALYHYDPKTQDTFYDVSELQVESLGKYTANFKKVDKNGNVKVAVTAGNYYTFTVMYADDSSALIHTCLHEGNKDLGDLYAVLNRNKDAAAGDKVKSAVSAATLEFSKFISTKENNCAYDNDSLKSLLTK	dimers
D30A (protein) ACTKNAIAQTGFNKDKYFNGDVWYVTDYLALEPDDVPKRYCAALAAGTASGKLKEALYHYDPKTQDTFYDVSELQVESLGKYTANFKKVDKNGNVKVAVTAGNYYTFTVMYADDSSALIHTCLHKGNKDLGDLYAVLNRNKDAAAGDKVKSAVSAATLEFSKFISTKENNCAYDNDSLKSLLTK	monomers
K38A (protein) ACTKNAIAQTGFNKDKYFNGDVWYVTDYLDLEPDDVPARYCAALAAGTASGKLKEALYHYDPKTQDTFYDVSELQVESLGKYTANFKKVDKNGNVKVAVTAGNYYTFTVMYADDSSALIHTCLHKGNKDLGDLYAVLNRNKDAAAGDKVKSAVSAATLEFSKFISTKENNCAYDNDSLKSLLTK	dimers
NP4-ImH: NP4 with imidazole bound (protein) ACTKNAIAQTGFNKDKYFNGDVWYVTDYLDLEPDDVPKRYCAALAAGTASGKLKEALYHYDPKTQDTFYDVSELQVESLGKYTANFKKVDKNGNVKVAVTAGNYYTFTVMYADDSSALIHTCLHKGNKDLGDLYAVLNRNKDAAAGDKVKSAVSAATLEFSKFISTKENNCAYDNDSLKSLLTK	dimers
D30N (protein) ACTKNAIAQTGFNKDKYFNGDVWYVTDYLNLEPDDVPKRYCAALAAGTASGKLKEALYHYDPKTQDTFYDVSELQVESLGKYTANFKKVDKNGNVKVAVTAGNYYTFTVMYADDSSALIHTCLHKGNKDLGDLYAVLNRNKDAAAGDKVKSAVSAATLEFSKFISTKENNCAYDNDSLKSLLTK	monomers
R39A (protein) ACTKNAIAQTGFNKDKYFNGDVWYVTDYLDLEPDDVPKAYCAALAAGTASGKLKEALYHYDPKTQDTFYDVSELQVESLGKYTANFKKVDKNGNVKVAVTAGNYYTFTVMYADDSSALIHTCLHKGNKDLGDLYAVLNRNKDAAAGDKVKSAVSAATLEFSKFISTKENNCAYDNDSLKSLLTK	dimers
NP4-NO: NP4 with nitric oxide bound to the heme (protein) ACTKNAIAQTGFNKDKYFNGDVWYVTDYLDLEPDDVPKRYCAALAAGTASGKLKEALYHYDPKTQDTFYDVSELQVESLGKYTANFKKVDKNGNVKVAVTAGNYYTFTVMYADDSSALIHTCLHKGNKDLGDLYAVLNRNKDAAAGDKVKSAVSAATLEFSKFISTKENNCAYDNDSLKSLLTK	dimer

Alright, here's another molecule for you.
Given the entry K125A (protein) ACTKNAIAQTGFNKDKYFNGDVWYVTDYLDLEPDDVPKRYCAALAAGTASGKLKEALYHYDPKTQDTFYDVSELQVESLGKYTANFKKVDKNGNVKVAVTAGNYYTFTVMYADDSSALIHTCLHAGNKDLGDLYAVLNRNKDAAAGDKVKSAVSAATLEFSKFISTKENNCAYDNDSLKSLLTK , report its measured monomer or dimer on the size-exclusion column.
dimers
